Listing of entries alongside the reported CC50 at 24 h.
EXPERIMENT NOTES: Cytotoxicity against human IMR90 cells after 24 hrs by MTT assay
Assay type: cell-based, IMR-90
RUN CONDITIONS: read-out: ID50

{"columns": ["COMPOUND", "CC50 at 24 h"],
 "data": [
  ["Cc1ccc2c(c1C=O)[C@@](C)(C=O)CC2(C)C", "10 µg/mL"],
  ["CC(=O)O[C@H]1C[C@@H](C)[C@@H]2COC[C@@]3(C)CC(C)(C)[C@H]1[C@]23O", "> 10 µg/mL"],
  ["CC(=O)O[C@H]1C[C@@H](C)[C@@H]2[C@@H](O)[C@H](O)[C@@]3(C)CC(C)(C)[C@H]1[C@]23O", "> 10 µg/mL"],
  ["COC(=O)[C@H]1[C@H](C)C[C@H](OC(C)=O)[C@H]2C(C)(C)C[C@](C)(C(=O)OC)[C@@]12O [DIMETHYL BOTRYDIOATE]", "> 10 µg/mL"],
  ["CC(=O)O[C@H]1C[C@@H](C)[C@H](C=O)[C@]2(O)[C@@H]1C(C)(C)C[C@@]2(C)C=O", "10 µg/mL"]
]}

// CC50 at 24 h value for CC(=O)O[C@H]1C[C@@H](C)[C@@H]2[C@H](O)OC[C@@]3(C)CC(C)(C)[C@H]1[C@]23O : > 10 µg/mL

// CC50 at 24 h value for CC(=O)O[C@H]1C[C@@H](C)[C@@H]2C(=O)OC[C@@]3(C)CC(C)(C)[C@H]1[C@]23O : > 10 µg/mL

// CC50 at 24 h value for CC(=O)O[C@H]1C[C@@H](C)C(C=O)=C2[C@@H]1C(C)(C)C[C@]2(C)CO [BOTRYENALOL] : > 10 µg/mL

// CC50 at 24 h value for COC(=O)[C@@]1(C)CC(C)(C)[C@@H]2[C@@H](OC(C)=O)C[C@@H](C)[C@H](C=O)[C@@]21O [METHYL ACETYLBOTRYALOATE] : > 10 µg/mL

// CC50 at 24 h value for CC(=O)O[C@H]1C[C@@H](C)[C@H](CO)C2=C1C(C)(C)C[C@]2(C)CO : > 10 µg/mL

// CC50 at 24 h value for CC(=O)O[C@H]1C[C@@H](C)[C@H](C(=O)O)[C@@]2(O)[C@@H]1C(C)(C)C[C@]2(C)C=O : > 10 µg/mL

// CC50 at 24 h value for CC(=O)O[C@H]1C[C@@H](C)[C@H](C(=O)O)[C@@]2(O)[C@@H]1C(C)(C)C[C@]2(C)CO [BOTRYOLOIC ACID] : > 10 µg/mL

// CC50 at 24 h value for Cc1ccc2c(c1CO)[C@@](C)(CO)C[C@@]2(C)CO : > 10 µg/mL

// CC50 at 24 h value for CC1(C)C[C@](C)(CO)c2c1ccc(CO)c2CO : > 10 µg/mL

// CC50 at 24 h value for CC(=O)O[C@H]1C[C@@H](C)[C@@H]2COC(=O)[C@@]3(C)CC(C)(C)[C@H]1[C@]23O : > 10 µg/mL

// CC50 at 24 h value for CC(=O)O[C@H]1C[C@@H](C)[C@@H](C=O)[C@@]2(O)[C@@H]1C(C)(C)C[C@]2(C)C=O : 10 µg/mL

All figures here come from ChEMBL document CHEMBL1150672.
